- target-or-test-system: BRAF^V600E protein (Homo sapiens, UniProt P15056, V600E)
- Sequence (P15056 whole entry V600E): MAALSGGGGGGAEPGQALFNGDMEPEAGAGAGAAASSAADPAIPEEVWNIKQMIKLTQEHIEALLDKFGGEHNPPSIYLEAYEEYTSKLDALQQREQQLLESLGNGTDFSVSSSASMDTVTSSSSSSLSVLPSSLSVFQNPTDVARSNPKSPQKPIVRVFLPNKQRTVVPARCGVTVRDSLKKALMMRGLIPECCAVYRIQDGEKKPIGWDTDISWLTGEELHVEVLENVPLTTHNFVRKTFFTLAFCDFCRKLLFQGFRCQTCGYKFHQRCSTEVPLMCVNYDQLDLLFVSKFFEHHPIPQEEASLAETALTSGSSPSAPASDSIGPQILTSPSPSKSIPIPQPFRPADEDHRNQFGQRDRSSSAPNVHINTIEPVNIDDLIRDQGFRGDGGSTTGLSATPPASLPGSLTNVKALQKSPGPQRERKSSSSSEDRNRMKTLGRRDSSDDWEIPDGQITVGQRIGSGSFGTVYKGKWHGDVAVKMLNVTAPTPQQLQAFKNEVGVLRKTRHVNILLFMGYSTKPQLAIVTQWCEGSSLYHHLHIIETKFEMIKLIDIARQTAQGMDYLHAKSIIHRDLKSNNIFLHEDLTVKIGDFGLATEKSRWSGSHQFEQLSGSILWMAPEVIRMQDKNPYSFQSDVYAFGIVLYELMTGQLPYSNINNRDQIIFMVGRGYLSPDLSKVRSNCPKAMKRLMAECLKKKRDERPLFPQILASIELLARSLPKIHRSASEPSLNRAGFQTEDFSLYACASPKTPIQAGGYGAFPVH
- run-description: HiBiT cellular BRAF V600E degradation assay
- Assay type: cell-based
- test-settings: A375.10 cells, 24 h incubation; Emax = amount of residual protein remaining in the cell after compound treatment; read-out: HiBit 24 h Emax
- Description: DMEM no-phenol red medium supplemented with L-glutamine was purchased from (Corning). Fetal bovine serum (FBS) was purchased from Gibco (Grand Island, NY, USA). Nano-Glo® HiBiT Lytic Assay Buffer & Reagents were purchased from Promega (Madison, WI, USA). […] Prior to the assay, the A375.10 cell line is maintained in DMEM no-phenol red medium supplemented with 10% fetal bovine serum (FBS). […] Finally, HiBiT luminescence signal was acquired on EnVision™ Multilabel Reader (PerkinElmer, Santa Clara, CA, USA). […]
Rule: Emax below 8% gives fulfilled, anything at or above gives not fulfilled.

compound	class-label
CCN(C)S(=O)(=O)Nc1ccc(F)c(C(=O)c2c[nH]c3ncc(-c4ccc(N5CCC(NC(=O)CN6CCC(c7ccc(OC8CCC(=O)NC8=O)cn7)CC6)CC5)cc4)cc23)c1F (stereo not drawn) [Example A64]	not fulfilled
CCN(C)S(=O)(=O)Nc1ccc(F)c(C(=O)c2c[nH]c3ncc(-c4cnc(N5CCN(C(=O)CC6(O)CCN(c7ccc(NC8CCC(=O)NC8=O)cc7F)CC6)CC5)c(C#N)c4)cc23)c1F (stereo not drawn) [Example 186]	not fulfilled
CCN(C)S(=O)(=O)Nc1ccc(F)c(C(=O)c2c[nH]c3ncc(-c4cnc(N5CCN(C(=O)CC6(O)CCN(c7ccc(N[C@@H]8CCC(=O)NC8=O)cc7F)CC6)CC5)nc4)cc23)c1F [Example 174]	not fulfilled

Prompt: is_below(Emax, 8%) for CCN(C)S(=O)(=O)Nc1cccc(C(=O)c2c[nH]c3ncc(-c4ccc(N5CCN(C(=O)CC6(O)CCN(c7ccc(NC8CCC(=O)NC8=O)cc7F)C6)CC5)cc4)cc23)c1F (stereo not drawn) [Example 118] ?
Completion: not fulfilled

Prompt: In plain terms, does CCN(C)S(=O)(=O)Nc1ccc(F)c(C(=O)c2c[nH]c3ncc(-c4ccc(N5CCN(C(=O)CC6(O)CCN(c7cc(Cl)c(N8CCC(=O)NC8=O)cc7Cl)CC6)CC5)nc4)cc23)c1F [Example 218] come in under 8% for Emax?
Completion: fulfilled

Prompt: Identify whether the compound CCN(C)S(=O)(=O)Nc1ccc(F)c(C(=O)c2c[nH]c3ncc(-c4cnc(N5CCN(C(=O)CN6CCC(c7ccc(NC8CCC(=O)NC8=O)cc7C#N)CC6)CC5)nc4)cc23)c1F (stereo not drawn) [Example 40] records Emax below 8%.
Completion: not fulfilled

* * *

- target-or-test-system: BRAF^V600E protein (Homo sapiens, UniProt P15056, V600E)
- run-description: HiBiT cellular BRAF V600E degradation assay
- Type: cell-based
- test-settings: A375.10 cells, 24 h incubation; Emax = amount of residual protein remaining in the cell after compound treatment; read-out: HiBit 24 h Emax
outcome-measure: Emax (%)
Write the number in % without appending the unit.

Recorded results for 6 compounds are shown here.
compound	outcome-measure	units-of-measure	measured
CCN(C)S(=O)(=O)Nc1ccc(F)c(C(=O)c2c[nH]c3ncc(-c4cnc(N5CCN(C(=O)CC6(O)CCN(c7ccc(N8CCC(=O)NC8=O)cc7F)CC6)CC5)c(F)c4)cc23)c1F	Emax	%	8.29
CCN(C)S(=O)(=O)Nc1ccc(F)c(C(=O)c2c[nH]c3ncc(C#CC4CCN(C(=O)CN5CCC(c6ccc(NC7CCC(=O)NC7=O)cc6F)CC5)CC4)cc23)c1F (stereo not shown)	Emax	%	13
CCN(C)S(=O)(=O)Nc1ccc(F)c(C(=O)c2c[nH]c3ncc(-c4ccc(N5CCN(C(=O)CC6(O)CCN(c7ccc(N8CCC(=O)NC8=O)cc7Cl)CC6)CC5)nc4)cc23)c1F	Emax	%	5.48
CCN(C)S(=O)(=O)Nc1ccc(F)c(C(=O)c2c[nH]c3ncc(-c4cnc(N5CCN(C(=O)CN6CCC(c7ccc8c(N9CCC(=O)NC9=O)nn(C)c8c7)CC6)CC5)nc4)cc23)c1F	Emax	%	8.14
CCN(C)S(=O)(=O)Nc1ccc(F)c(C(=O)c2c[nH]c3ncc(-c4ccc(N5CCN(C(=O)CN6CCC(c7ccc(NC8CCC(=O)NC8=O)cc7)CC6)CC5)cc4)cc23)c1F (stereo not shown)	Emax	%	10
CCN(C)S(=O)(=O)Nc1ccc(F)c(C(=O)c2c[nH]c3ncc(-c4ccc(N5CCN(C(=O)CN6CCC(c7ccc(NC8CCC(=O)NC8=O)cc7)CC6)CC5)nc4)cc23)c1F (stereo not shown)	Emax	%	9.42

Entry CCN(C)S(=O)(=O)Nc1ccc(F)c(C(=O)c2c[nH]c3ncc(-c4cnc(N5CCN(C(=O)CN6CC7(C6)CN(c6ccc(NC8CCC(=O)NC8=O)cc6)C7)CC5)nc4)cc23)c1F (stereo not shown) , Emax reported as 17.5

Lab note: CCN(C)S(=O)(=O)Nc1ccc(F)c(C(=O)c2c[nH]c3ncc(-c4ccc(CN5CCN(C(=O)CN6CCN(c7cccc(NC8CCC(=O)NC8=O)c7)CC6)CC5)cc4)cc23)c1F (stereo not shown) gave Emax of 18

Emax reading for CCN(C)S(=O)(=O)Nc1ccc(F)c(C(=O)c2c[nH]c3ncc(-c4cnc(N5CCN(C(=O)CC6(O)CCN(c7ccc(N8CCC(=O)NC8=O)cc7Cl)CC6)CC5)nc4)cc23)c1F : 6.06

The recorded Emax for entry [2H][C@]1(c2ccc(N3CCC(O)(CC(=O)N4CCN(c5ncc(-c6cnc7[nH]cc(C(=O)c8c(F)ccc(NS(=O)(=O)N(C)CC)c8F)c7c6)cn5)CC4)CC3)c(F)c2)CCC(=O)NC1=O (single isomer, unassigned) [Example 158d] equals 11.6

Emax measured on CCN(C)S(=O)(=O)Nc1ccc(F)c(C(=O)c2c[nH]c3ncc(-c4ccc(N5CCN(C(=O)CC6(O)CCN(c7cc(F)c(N8CCC(=O)NC8=O)cc7F)CC6)CC5)nc4)cc23)c1F = 7.62

CCN(C)S(=O)(=O)Nc1cccc(C(=O)c2c[nH]c3ncc(-c4ccc(N5CCN(C(=O)CC6(O)CCN(c7ccc(N8CCC(=O)NC8=O)cc7F)CC6)CC5)nc4)cc23)c1F has a reported Emax of 10.2

Entry CCN(C)S(=O)(=O)Nc1ccc(F)c(C(=O)c2c[nH]c3ncc(-c4cnc(N5CCC(NCC(=O)N6CCC(c7ccc(NC8CCC(=O)NC8=O)cn7)CC6)CC5)nc4)cc23)c1F (stereo not shown) — recorded Emax = 14
